Could you please report measured inhibition at 10 µM for the items listed next?
- System: A549 (lung adenocarcinoma)
- TEST_DESCRIPTION: Antiproliferative activity (CCK-8 cell viability), A549
- Assay type: cell-based
- MEASUREMENT_SETUP: Homo sapiens, Compound concentration: 10 μM, 72 h, read-out: Antiproliferative activity in cancerous cells, A549 (inhibition of cell growth)

inhibition at 10 µM for CC1=C(CC(=O)O)c2cc(F)ccc2/C1=C\c1cccc(Oc2ccc(Br)cc2)c1 is 30 to 50%

inhibition at 10 µM for CC1=C(CC(=O)O)c2ccc(F)c(F)c2/C1=C/c1cccc(Oc2ccccc2)c1 is ≥ 50%

inhibition at 10 µM for CCCC1=C(CC(=O)O)c2cc(F)ccc2/C1=C\c1cccc(COc2ccccc2)c1 is ≥ 50%

inhibition at 10 µM for COc1ccc2c(c1)C(CC(=O)O)=C(C)/C2=C/c1ccc(COCc2ccc(Cl)cc2)cc1 is ≥ 50%

inhibition at 10 µM for C/C(=C1/C=C(CC(=O)O)c2ccccc21)c1ccc(F)cc1 is < 30%

inhibition at 10 µM for CC1=C(CC(=O)O)c2cc(F)ccc2/C1=C\c1ccc(CCOc2ccc(Cl)cc2)cc1 is ≥ 50%

inhibition at 10 µM for CC(C)c1ccc(/C=C2/C(Cc3ccc(F)cc3)=C(CC(=O)O)c3cc(F)ccc32)cc1 [D2] is ≥ 50%

inhibition at 10 µM for CC1=C(CC(=O)O)c2cc(F)c(F)cc2/C1=C/c1ccc(Oc2ccc(F)cc2)cc1 is < 30%

inhibition at 10 µM for CC1=C(CC(=O)O)c2cc(F)ccc2/C1=C\c1ccc(OCCc2ccc(Cl)cc2)cc1 is ≥ 50%

inhibition at 10 µM for CC1=C(CC(=O)O)c2cc(F)cc(F)c2/C1=C/c1cccc(COc2ccccc2)c1 is ≥ 50%

inhibition at 10 µM for CC1=C(CC(=O)O)c2c(F)cccc2/C1=C\c1cccc(Oc2ccccc2)c1 is 30 to 50%

inhibition at 10 µM for COc1ccc(/C=C2/C(C)=C(CC(=O)O)c3cc(F)ccc32)c(OCc2ccccc2)c1 is < 30%

inhibition at 10 µM for CC1=C(CC(=O)O)c2ccc(F)cc2/C1=C\c1ccc(Oc2ccc(F)cc2)cc1 is 30 to 50%

inhibition at 10 µM for COc1ccc2c(c1)C(CC(=O)O)=C(C)/C2=C/c1ccc(COc2ccc(F)cc2)cc1 is 30 to 50%

inhibition at 10 µM for CCC1=C(CC(=O)O)c2cc(F)ccc2/C1=C\c1cccc(COc2ccccc2)c1 is ≥ 50%

inhibition at 10 µM for CCc1ccc(Oc2ccc(/C=C3/C(C)=C(CC(=O)O)c4cc(Cl)ccc43)cc2)cc1 is ≥ 50%

inhibition at 10 µM for CC1=C(CC(=O)O)c2cc(F)ccc2/C1=C\c1cccc(Oc2ccc3ccccc3c2)c1 is < 30%

inhibition at 10 µM for CCc1ccc2c(c1)C(CC(=O)O)=C(C)/C2=C/c1ccc(COCc2ccc(F)cc2)cc1 is ≥ 50%

----------
- Test system: B16F10 (malignant melanoma)
- TEST_DESCRIPTION: Antiproliferative activity (CCK-8 cell viability), B16F10
- Format: cell-based
- MEASUREMENT_SETUP: Mus musculus, B16-F10, Compound concentration: 10 μM, 72 h, read-out: Antiproliferative activity in cancerous cells, B16F10 (inhibition of cell growth)
EXPERIMENTAL_ENDPOINT: inhibition at 10 µM

inhibition at 10 µM for CC1=C(CC(=O)O)c2cc(F)ccc2/C1=C\c1ccc(COCc2ccc(C(F)(F)F)cc2)cc1 is ≥ 50%

inhibition at 10 µM for CC1=C(CC(=O)O)c2cc(F)ccc2/C1=C\c1ccccc1OCc1ccccc1 is 30 to 50%

inhibition at 10 µM for CC1=C(CC(=O)O)c2cc(F)ccc2/C1=C\c1ccc(CCOc2ccccc2)cc1 is ≥ 50%

inhibition at 10 µM for CC1=C(CC(=O)O)c2cc(F)ccc2/C1=C\c1ccc(C2(c3ccccc3)SCCS2)cc1 is ≥ 50%

inhibition at 10 µM for CC1=C(CC(=O)O)c2cc(Br)ccc2/C1=C\c1ccc(COCc2ccc(Cl)cc2)cc1 is < 30%
